Items are presented alongside their recorded pIC50.
measured-on: HCV NS3/4A 1b protease D168A (Hepatitis C virus genotype 1b, UniProt Q9WMX2, D1194A)
Construct: 10× stocks of NS3/4A protease enzyme from Bioenza (Mountain View, Calif.); purchased Bioenza (Mountain View, Calif.)
protocol: HCV protease FRET assay (IC50_APP), Example 16
Type: biochemical
pIC50: −log10 of the molar value.
parameter: pIC50

compound: C=C[C@@H]1C[C@]1(NC(=O)[C@@H]1CC(OC(=O)N2Cc3cccc(F)c3C2)CN1C(=O)[C@H](CCC(=O)/C=C/C)NC(=O)OC(C)(C)C)C(=O)NS(=O)(=O)C1CC1 (stereo partly shown) [Compound I-26]
val: > 8.00

compound: C=CC(=O)N1CCC/C=C\[C@@H]2C[C@@]2(C(=O)NS(=O)(=O)C2CC2)NC(=O)[C@@H]2CC(OC(=O)N3Cc4cccc(F)c4C3)CN2C(=O)[C@@H](NC(=O)OC(C)(C)C)C1 (stereo partly shown) [Compound I-35]
val: 7.00 to 8.00

compound: C=C[C@@H]1C[C@]1(NC(=O)[C@@H]1C[C@@H](OC(=O)N2Cc3cccc(F)c3C2)CN1C(=O)[C@H](CNS(=O)(=O)C=C)NC(=O)OC(C)(C)C)C(=O)NS(=O)(=O)C1CC1 [Compound I-2]
val: > 8.00

compound: C=CC(=O)NC[C@H](NC(=O)OC1CCCC1)C(=O)N1C[C@H](OC(=O)N2Cc3cccc(F)c3C2)C[C@H]1C(=O)N[C@]1(C(=O)NS(=O)(=O)C2CC2)C[C@H]1C=C [Compound I-19]
val: 7.00 to 8.00

compound: C=CC(=O)NC[C@@H]1NC(=O)OCC(C)(C)CC/C=C/c2cccc3c2CN(C3)C(=O)O[C@@H]2C[C@@H](C(=O)N[C@]3(C(=O)NS(=O)(=O)C4CC4)C[C@H]3C=C)N(C2)C1=O [Compound I-40]
val: 7.00 to 8.00

compound: C=C[C@@H]1C[C@]1(NC(=O)[C@@H]1C[C@@H]2CN1C(=O)[C@H](CCC(=O)C=C(C)C)NC(=O)OCC(C)(C)CC/C=C/c1cccc3c1CN(C3)C(=O)O2)C(=O)NS(=O)(=O)C1CC1 [Compound I-55]
val: 7.00 to 8.00

compound: C=CC(=O)N(C)CC[C@H](NC(=O)OC(C)(C)C)C(=O)N1C[C@H](OC(=O)N2Cc3cccc(F)c3C2)C[C@H]1C(=O)N[C@]1(C(=O)NS(=O)(=O)C2CC2)C[C@H]1C=C [Compound I-13]
val: 6.00 to 7.00

compound: C=C[C@@H]1C[C@]1(NC(=O)[C@@H]1CC(OC(=O)N2Cc3cccc(F)c3C2)CN1C(=O)[C@H](CC(=O)/C(C)=C/C)NC(=O)OC(C)(C)C)C(=O)NS(=O)(=O)C1CC1 (stereo partly shown) [Compound I-70]
val: 6.00 to 7.00

compound: C=CC(=O)O[C@H](C)[C@H](NC(=O)OC(C)(C)C)C(=O)N1C[C@H](OC(=O)N2Cc3cccc(F)c3C2)C[C@H]1C(=O)N[C@]1(C(=O)NS(=O)(=O)C2CC2)C[C@H]1C=C [Compound I-24]
val: > 8.00

compound: CC[C@@H]1C[C@]1(NC(=O)[C@@H]1CC(OC(=O)N2Cc3cccc(F)c3C2)CN1C(=O)[C@H](CCC(=O)C=C(C)C)NC(=O)OC(C)(C)C)C(=O)NS(=O)(=O)C1CC1 (stereo partly shown) [Compound I-33]
val: 5.00 to 6.00
